# System: KM12
# ASSAY_PROTOCOL: NCI tumour cell line growth inhibition, 48 h
The source made the active and inactive calls. No stated cut-off is given here; in the data, active = GI50 up to about 1.1 µM and inactive = higher.
EXPERIMENTAL_READOUT: GI50

• COC(=O)[C@@]12C(=O)C=CC(=O)C1C1C(=CC2C)OC2OC3(CCCCC3)OC21 (stereo partly specified) = 20 µM (inactive)
• O=C(CCN1CC2CCC(CC2)C1)c1cccs1 = 19.9 µM (inactive)
• CN(C)CCN1CCc2c([nH]c3ccccc23)C1c1cccnc1 (stereo unspecified) = > 100 µM (inactive)
• CC1=C2C(O)C(C(C)CO)C(O)CC2(C)C(O)CC1 (stereo unspecified) = > 100 µM (inactive)
• Cc1nc(Nc2ccc(Cl)cc2)sc1C(=O)NNc1ccc([N+](=O)[O-])cc1[N+](=O)[O-] = 15.8 µM (inactive)
• CC(=O)[C@@]1(C)CC2(CCN(C)CC2)OC1C (stereo partly specified) = > 100 µM (inactive)
